Data provenance is PubChem BioAssay (NCI).

# reported TGI; entries follow
tested on: UACC-257 melanoma; assay: NCI tumour cell line growth inhibition, 48 h
measurementType: TGI

[[record]]
molecule = "CC(N)(/C=C/c1ccccc1)C(=O)O (stereo unspecified)"
testtarget = "UACC-257 melanoma"
assayresult = "> 100 µM"

[[record]]
molecule = "CCCCNC(=O)C1C(=O)N(CCCC)C(=O)/C1=N\\N (stereo unspecified)"
testtarget = "UACC-257 melanoma"
assayresult = "> 100 µM"

[[record]]
molecule = "CN(C)CCCNc1ncnc2c1ncn2C1OC(CO)C(O)C1O (stereo unspecified)"
testtarget = "UACC-257 melanoma"
assayresult = "> 100 µM"

[[record]]
molecule = "CNC(=O)NCCN1CC2CCC(CC2)C1"
testtarget = "UACC-257 melanoma"
assayresult = "> 10 µM"

[[record]]
molecule = "S=C(NCCNC(=S)[S][Sn]([c]1ccccc1)([c]1ccccc1)[c]1ccccc1)[S][Sn]([c]1ccccc1)([c]1ccccc1)[c]1ccccc1"
testtarget = "UACC-257 melanoma"
assayresult = "0.117 µM"

[[record]]
molecule = "Cc1cc(Nc2ncc3c(n2)N(C)C(=O)N(c2cc(NC(=O)c4cccc(C(F)(F)F)c4)ccc2C)C3)n(C)n1"
testtarget = "UACC-257 melanoma"
assayresult = "0.125 µM"


###

system: HCT-15 colon; assay: NCI tumour cell line growth inhibition, 48 h
Entries and their TGI
measurementType: TGI

[[record]]
molecule = "N#Cc1ccc(CSC2=C(c3ccc(Cl)cc3)S/C(=C3\\SC(SCc4ccc(C#N)cc4)=C(c4ccc(Cl)cc4)S3)S2)cc1"
testtarget = "HCT-15 colon"
assayresult = "> 100 µM"

[[record]]
molecule = "COc1cc(/C=N\\c2nc(-c3ccc(NS(=O)(=O)c4ccc(Cl)c(OC)c4)cc3)cs2)ccc1O"
testtarget = "HCT-15 colon"
assayresult = "> 100 µM"

[[record]]
molecule = "CCC1CCN=C(NS(=O)(=O)c2cc(C)c(Cl)cc2S)N1 (stereo not given)"
testtarget = "HCT-15 colon"
assayresult = "> 100 µM"

[[record]]
molecule = "CCOC(=O)C(Cc1cn(C(C)=O)c2ccccc12)P(=O)(OCC)OCC (stereo not given)"
testtarget = "HCT-15 colon"
assayresult = "> 100 µM"

[[record]]
molecule = "c1ccc(C(NC2=NCCO2)c2ccccc2)cc1"
testtarget = "HCT-15 colon"
assayresult = "> 10 µM"


###

system: HCT-15 colon; assay: NCI tumour cell line growth inhibition, 48 h
Where a SMILES comes first, the peptide text is derived from it. [ ]: non-standard residue; d: D form. Phe(4-NO2) = N[CH](Cc1ccc([N+](=O)[O-])cc1)C(=O)O
// reported TGI per item
measurementType: TGI

[[record]]
compound = "O=[N+]([O-])c1ccc(Oc2c(Cl)cc(S(=O)(=O)/N=C(\\NO)Nc3ccc(Cl)cc3)cc2Cl)c(Cl)c1"
measurementtype = "TGI"
assayresult = "32.1 µM"

[[record]]
compound = "CC(NC(=O)C(Cc1ccc([N+](=O)[O-])cc1)NC(=O)C(N)CCCCN)C(=O)NC(Cc1ccc([N+](=O)[O-])cc1)C(N)=O (centres undefined) (H-K[Phe(4-NO2)]A[Phe(4-NO2)]-NH2; configuration not given here)"
measurementtype = "TGI"
assayresult = "> 100 µM"

[[record]]
compound = "COc1ccc(Cc2c(=O)[nH]nc3ccccc23)cc1"
measurementtype = "TGI"
assayresult = "> 100 µM"

[[record]]
compound = "Cc1occc1C(=S)Nc1ccc(Cl)c(/C=N/OC(C)(C)C)c1"
measurementtype = "TGI"
assayresult = "31.2 µM"

[[record]]
compound = "O=C(/C=C/c1ccc(C(F)(F)F)cc1)c1c([O-])on[n+]1-c1ccccc1"
measurementtype = "TGI"
assayresult = "3.12 µM"

[[record]]
compound = "O=C(c1nc2ccccc2[nH]c1=O)C(O)c1ccco1 (centres undefined)"
measurementtype = "TGI"
assayresult = "> 100 µM"

[[record]]
compound = "COC(=O)C(C)(C)[C@@H]1OC(=O)N(S(=O)(=O)c2c(C)cc(C)cc2C)[C@H]1C(C)C"
measurementtype = "TGI"
assayresult = "> 100 µM"

[[record]]
compound = "NC(=O)/C(=N\\NC(=O)C[n+]1ccccc1)C1NC(=O)NC1=O (centres undefined)"
measurementtype = "TGI"
assayresult = "> 100 µM"

[[record]]
compound = "CC1(Br)CC2OC3(Br)C=CC(C)(O)C2(CC1=O)C3(C)C (centres undefined)"
measurementtype = "TGI"
assayresult = "> 100 µM"

[[record]]
compound = "CC1=NN(c2ccc(S(=O)(=O)O)cc2)C(=O)/C1=C/c1ccc(Cl)cc1"
measurementtype = "TGI"
assayresult = "> 100 µM"

[[record]]
compound = "CCN1C(=O)N(CC)C2C1NN=c1s/c(=C\\c3ccco3)c(=O)n12 (centres undefined)"
measurementtype = "TGI"
assayresult = "> 100 µM"

[[record]]
compound = "COc1cc2c(cc1OC)CC(=O)Nc1cc(OC)c(OC)cc1CC2"
measurementtype = "TGI"
assayresult = "> 100 µM"

[[record]]
compound = "CCOC(=O)C(N=C(c1ccccc1)c1ccccc1)N(C(=O)OC(C)(C)C)C(=O)OC(C)(C)C (centres undefined)"
measurementtype = "TGI"
assayresult = "> 100 µM"

[[record]]
compound = "CCOC(=O)c1cc2c3c(c(C(C)=O)c(O)c2[nH]1)N(C(C)=O)CC3"
measurementtype = "TGI"
assayresult = "> 100 µM"

[[record]]
compound = "CCN(CC)C1CCC(C2c3cc4c(cc3OC(N3CCOCC3)C2C)OCO4)CC1 (centres undefined)"
measurementtype = "TGI"
assayresult = "> 100 µM"

[[record]]
compound = "Cc1ccc(-c2cc3c4c(nc5ccccc53)C(=O)c3cccnc3-c4n2)cc1"
measurementtype = "TGI"
assayresult = "49.9 µM"

[[record]]
compound = "O=C(c1ccccc1)C(c1ccccc1)C1(O)C(=O)Nc2ccc([N+](=O)[O-])cc21 (centres undefined)"
measurementtype = "TGI"
assayresult = "> 100 µM"

[[record]]
compound = "CCOC(=O)C1(N)CCc2[nH][nH]c(=O)c2C1 (centres undefined)"
measurementtype = "TGI"
assayresult = "> 100 µM"

[[record]]
compound = "CC(C)(C)OC(=O)NC(Cc1ccc(O)cn1)C(=O)O (centres undefined)"
measurementtype = "TGI"
assayresult = "> 100 µM"

[[record]]
compound = "C=C1CCCC(C)(C)C1CCC1(C)CCC(C(C)C(=O)OC)OO1 (centres undefined)"
measurementtype = "TGI"
assayresult = "> 25 µM"

[[record]]
compound = "CCNC(=O)Nc1ccc(Oc2ccnc3ccc4c(ccn4C)c23)cc1"
measurementtype = "TGI"
assayresult = "> 100 µM"

[[record]]
compound = "CCCN(CCC)C(=S)N/N=C/c1ccccn1"
measurementtype = "TGI"
assayresult = "16.8 µM"

[[record]]
compound = "Cc1cc(Nc2ncc3c(n2)N(C)C(=O)N(c2cc(NC(=O)c4cccc(C(F)(F)F)c4)ccc2C)C3)n(C)n1"
measurementtype = "TGI"
assayresult = "> 46.4 µM"

[[record]]
compound = "c1ccc2cc(NCNc3ccc4ccccc4c3)ccc2c1"
measurementtype = "TGI"
assayresult = "46.4 µM"

[[record]]
compound = "C/C(=N\\NC(=S)NCCCCNC(=S)N/N=C(\\C)c1ccccn1)c1ccccc1"
measurementtype = "TGI"
assayresult = "> 100 µM"

[[record]]
compound = "CCOC(=O)Nc1nc2ccc(Br)cc2s1"
measurementtype = "TGI"
assayresult = "> 50 µM"

[[record]]
compound = "O=C(OCc1ccc([N+](=O)[O-])cc1)N1c2ccccc2[C@@]23O[C@]24CCC[C@H]3C#C/C=C\\C#C[C@H]14"
measurementtype = "TGI"
assayresult = "> 100 µM"

[[record]]
compound = "COc1cc(/C(=C2/O[C@@H]([C@H]3COC(C)(C)O3)[C@H]3OC(C)(C)O[C@@H]23)c2ccc3ccccc3c2)cc(OC)c1OC"
measurementtype = "TGI"
assayresult = "> 100 µM"

[[record]]
compound = "O=C1CC2(CCC3=C(O2)c2ccccc2NC(=O)C3)C(=O)c2ccccc2N1 (centres undefined)"
measurementtype = "TGI"
assayresult = "> 100 µM"

[[record]]
compound = "CC(=O)O[C@@H]1C(=O)N(c2ccccc2)[C@@H]1c1cc2ccccc2c2ccccc12"
measurementtype = "TGI"
assayresult = "> 100 µM"

[[record]]
compound = "O=C(Nc1ccc(-n2cc(-c3ccncc3)c(-c3ccc(O)c(Cl)c3)n2)cc1)Nc1ccc(Cl)c(C(F)(F)F)c1"
measurementtype = "TGI"
assayresult = "11.8 µM"

[[record]]
compound = "Cc1ccc2c(c1)c(Sc1ccc(C(=O)NO)cc1)c1n2CN(C)CC1"
measurementtype = "TGI"
assayresult = "13.6 µM"

[[record]]
compound = "O=C1NC(=O)C(C(=O)C(=O)Nc2ccc(Cl)cc2Cl)C(=O)N1"
measurementtype = "TGI"
assayresult = "> 100 µM"

[[record]]
compound = "CC1CC/C(=C\\c2ccc(N(C)C)cc2)C2=C1C(c1ccc(N(C)C)cc1)NC(=S)N2 (centres undefined)"
measurementtype = "TGI"
assayresult = "> 100 µM"

[[record]]
compound = "CCSc1cc2c(cc1O)CC[C@@H]1[C@@H]2CC[C@]2(C)[C@@H](O)CC[C@@H]12"
measurementtype = "TGI"
assayresult = "23.2 µM"

[[record]]
compound = "CCOC(=O)C1C(C)C2(C#N)C(=N)OC1(C)C2(C#N)C#N (centres undefined)"
measurementtype = "TGI"
assayresult = "> 100 µM"

[[record]]
compound = "N#CCCN(CCC#N)c1ccc(/C=C(\\NC(=O)c2cc([N+](=O)[O-])ccc2Cl)C(=O)Nc2ccccc2)cc1"
measurementtype = "TGI"
assayresult = "> 100 µM"

[[record]]
compound = "O=C(CCCN1CCC(Nc2ccccc2)(c2nnnn2C2CCCCC2)CC1)c1ccc(F)cc1"
measurementtype = "TGI"
assayresult = "> 100 µM"

[[record]]
compound = "Cc1nc(N2N=C(c3ccc(Cl)cc3)CCC2=O)sc1[N+](=O)[O-]"
measurementtype = "TGI"
assayresult = "> 100 µM"

